Assay: Inhibition of CHK1 in human HT29 cells assessed as abrogation of camptothecin-induced G2/M phase arrest
Classify: criterion met when EC50 is strictly less than 70 nM; criterion not met when EC50 is not.

Quick check: EC50 of NC(=O)c1ccc(N[C@H]2CCCNC2)c2cc(-c3ccccc3)[nH]c12 under 70 nM?
criterion met

Queued: NC(=O)c1ccc(N[C@H]2CCCNC2)c2cc(-c3ccc(F)cc3)[nH]c12
criterion met

Same again, this time with NC(=O)c1cnc(N(CCO)[C@H]2CCCNC2)c2cc(-c3ccccc3)sc12
criterion not met

And then NC(=O)c1cnc(O[C@H]2CCCNC2)c2cc(-c3ccccc3)sc12 , what is it?
criterion not met

Then what about the compound NC(=O)c1cnc(N[C@H]2CCCNC2)c2cc(-c3cccc(F)c3)sc12 ?
criterion met

Entry NC(=O)c1cnc(SC2CCCNC2)c2cc(-c3ccccc3)sc12 (stereo unspecified) please
criterion not met

Request: NC(=O)c1cnc(N[C@H]2CCCNC2)c2cc(-c3cnn(Cc4ccccc4)c3)sc12
criterion met

Next record, please: C[C@@H]1CC[C@H](Nc2ncc(C(N)=O)c3sc(-c4ccccc4)cc23)[C@H](C)N1
criterion met

Also Cn1cc(-c2cc3c(N[C@H]4CCCNC4)ncc(C(N)=O)c3s2)cn1 ?
criterion not met

Further, for NC(=O)c1cnc(N[C@H]2CCCNC2)c2cc(-c3cccs3)sc12 ?
criterion met

Then what about the compound NC(=O)c1cnc(N[C@H]2CCCN[C@@H]2CCO)c2cc(-c3ccccc3)sc12 ?
criterion not met

C[C@@H]1CC[C@H](Nc2ncc(C(N)=O)c3sc(-c4ccccc4)cc23)CN1 , same question.
criterion met

Do the same for CCN(c1ncc(C(N)=O)c2sc(-c3ccccc3)cc12)[C@H]1CCCNC1 please
criterion not met

Next entry: C[C@@H]1NCCC[C@@H]1Nc1ncc(C(N)=O)c2sc(-c3ccccc3)cc12
criterion met

Lookup CN1CCC[C@H](Nc2ncc(C(N)=O)c3sc(-c4ccccc4)cc23)C1
criterion not met

And for NC(=O)c1cnc(N[C@H]2CCCNC2)c2cc(-c3cn[nH]c3)sc12 ?
criterion not met

Would you mind doing NC(=O)c1cnc(N[C@H]2CCCNC2)c2cc(-c3ccccc3)sc12 as well?
criterion met

One more compound: C[C@H]1NCCC[C@@H]1Nc1ncc(C(N)=O)c2sc(-c3ccccc3)cc12
criterion met

Ok, now NC(=O)c1cnc(N[C@H]2CCCNC2)c2cc(-n3ccnc3)sc12
criterion not met

Would you mind doing NC(=O)c1cnc(N[C@H]2CNCC[C@@H]2O)c2cc(-c3ccccc3)sc12 as well?
criterion not met
